Reference source: PubChem BioAssay

# Experiment description: growth inhibition, single agents and combos, HTB85, cell-based, BGB or cisplatin IC20 combos, synergistic combos for chromothripsis tumors (AID 1671453);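 note: cells exposed for 96 hours before readout; 0% = vehicle DMSO and 100% = high DMSO killing control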
# Reported conditions: HTB85 osteosarcoma cells, drug combinations, measured here: with cisplatin IC20, at 0.5 µM, stronger effect = higher value
Measured quantity: inhibition (%)
# unit: % | format: bare number

In: // Input: `Cc1ccnc2c1NC(=O)c1cccnc1N2C1CC1` . Output its inhibition only.
Out: -9.99

In: // Input: `O=NN(CCCl)C(=O)NCCCl` . Output its inhibition only.
Out: -10.4

In: // Input: `Nc1[nH]c(=O)ncc1F` . Output its inhibition only.
Out: -6.71

In: // Input: `C[C@H]1COc2c(C3(N)CC3)c(F)cc3c(=O)c(C(=O)O)cn1c23` . Output its inhibition only.
Out: -17.4

In: // Input: `Nc1nc2c(ncn2COC(CO)CO)c(=O)[nH]1` . Output its inhibition only.
Out: -11.6

In: // Input: `NC(=O)NO` . Output its inhibition only.
Out: -0.499

In: // Input: `Cc1oncc1C(=O)Nc1ccc(C(F)(F)F)cc1` . Output its inhibition only.
Out: -18.2

In: // Input: `CCn1cc(C(=O)O)c(=O)c2cc3c(cc21)OCO3` . Output its inhibition only.
Out: 12

In: // Input: CC(N)C12CC3CC(CC(C3)C1)C2 (configuration not stated) . Output its inhibition only.
Out: -6.13

In: // Input: `O=c1oc2c(O)c(O)cc3c(=O)oc4c(O)c(O)cc1c4c23` . Output its inhibition only.
Out: -24.3

In: // Input: `O=C(O)CCCCCCCC(=O)O` . Output its inhibition only.
Out: -8.83

In: // Input: `Cc1nc2ccc(CN(C)c3ccc(C(=O)N[C@@H](CCC(=O)O)C(=O)O)s3)cc2c(=O)[nH]1` . Output its inhibition only.
Out: -17.6

====

# Experiment description: reduced SW480 viability measured with CellTiter-Glo, NPC library, primary (AID 1117343)
# Reported conditions: CellTiter-Glo luminescence; at 20 µM (top of the series)
Please note: viability decrease (inhibition) exactly at 60% is Not fulfilled. Only values below 60% get Fulfilled.

In: # TODO verify viability decrease (inhibition) < 60% strictly for this molecule: `CC1(C)O[C@@H]2C[C@H]3[C@@H]4C[C@H](F)C5=CC(=O)CC[C@]5(C)[C@H]4[C@@H](O)C[C@]3(C)[C@]2(C(=O)CO)O1`
Out: Fulfilled

In: # TODO verify viability decrease (inhibition) < 60% strictly for this molecule: `CN1CCC(=C2c3ccccc3C=Cc3ccccc32)CC1`
Out: Not fulfilled

In: # TODO verify viability decrease (inhibition) < 60% strictly for this molecule: CN1CCN2c3ccccc3Cc3ccccc3C2C1 (stereo not given)
Out: Not fulfilled

In: # TODO verify viability decrease (inhibition) < 60% strictly for this molecule: `O=C(O)CCNC(=O)c1ccc(N=Nc2ccc(O)c(C(=O)O)c2)cc1`
Out: Fulfilled

In: # TODO verify viability decrease (inhibition) < 60% strictly for this molecule: `Cc1nc2n(c(=O)c1CCN1CCC(c3noc4cc(F)ccc34)CC1)CCC[C@H]2O`
Out: Fulfilled

====

# Experiment description: stimulators of insulin release from INS-1E, primary screen, cell-based, 5 mM glucose, NPC library (AID 1117329); note: reference of the scale not given here
# Reported conditions: rat INS-1E insulin secretion, at 10 µM, stronger effect = higher value
Calls of active or inactive are those of the source.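 The calls were made as follows: active = compound raises insulin release from rat beta cells at 5 mM glucose, no numeric limit stated; inactive = the rest.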
Measured quantity: insulin secretion stimulation

In: // Input: `CC1=C(C(=O)O)N2C(=O)[C@@H](NC(=O)[C@H](N)C3=CCC=CC3)[C@H]2SC1` . Output its insulin secretion stimulation only.
Out: 0.35% (inactive)

In: // Input: `CN1CCN(CCCN2c3ccccc3Sc3ccc(Cl)cc32)CC1` . Output its insulin secretion stimulation only.
Out: 3.6% (inactive)

In: // Input: CCCCCC(C)N (stereo not drawn) . Output its insulin secretion stimulation only.
Out: 3.3% (inactive)

In: // Input: `CC(=O)Oc1ccccc1C(=O)Nc1ncc([N+](=O)[O-])s1` . Output its insulin secretion stimulation only.
Out: -1.8% (inactive)

In: // Input: `O=c1c(-c2ccc(O)cc2)coc2cc(O)cc(O)c12` . Output its insulin secretion stimulation only.
Out: 0.8% (inactive)

In: // Input: `CCN(CC)CCNC(=O)COc1ccc(OC)cc1` . Output its insulin secretion stimulation only.
Out: 1.8% (inactive)

In: // Input: `O=C(NCCO[N+](=O)[O-])c1cccnc1` . Output its insulin secretion stimulation only.
Out: 1.2% (inactive)

In: // Input: `Cc1cc2nc3c(=O)[nH]c(=O)nc-3n(C[C@H](O)[C@H](O)[C@H](O)CO)c2cc1C` . Output its insulin secretion stimulation only.
Out: 0.9% (inactive)

In: // Input: `Cn1c(NCCN(CCO)CCCc2ccc([N+](=O)[O-])cc2)cc(=O)n(C)c1=O` . Output its insulin secretion stimulation only.
Out: -5.7% (inactive)

In: // Input: `Cn1c(=O)c2c(ncn2CCO)n(C)c1=O` . Output its insulin secretion stimulation only.
Out: 1.4% (inactive)

In: // Input: `CCN1CCC[C@H]1CNC(=O)c1c(O)c(Cl)cc(Cl)c1OC` . Output its insulin secretion stimulation only.
Out: -0.9% (inactive)

In: // Input: `CC(=O)Oc1cccc2c1C(=O)c1c(OC(C)=O)cc(C(=O)O)cc1C2=O` . Output its insulin secretion stimulation only.
Out: 1.8% (inactive)

In: // Input: `Oc1ccc(Cl)cc1Cc1cc(Cl)ccc1O` . Output its insulin secretion stimulation only.
Out: -0.9% (inactive)

In: // Input: `CCCCC1C(=O)N(c2ccccc2)N(c2ccccc2)C1=O` . Output its insulin secretion stimulation only.
Out: -1.7% (inactive)

In: // Input: `C#CCN(C)Cc1ccccc1` . Output its insulin secretion stimulation only.
Out: 4.5% (inactive)

In: // Input: `CC1(C)O[C@@H]2C[C@H]3[C@@H]4C[C@H](F)C5=CC(=O)CC[C@]5(C)[C@H]4[C@@H](O)C[C@]3(C)[C@]2(C(=O)CO)O1` . Output its insulin secretion stimulation only.
Out: 6.1% (inactive)

In: // Input: `O=C(O)c1ccccc1Nc1cccc(C(F)(F)F)c1` . Output its insulin secretion stimulation only.
Out: 0.1% (inactive)

In: // Input: `CC(=O)OC/C=C(C)/C=C/C=C(C)/C=C/C1=C(C)CCCC1(C)C` . Output its insulin secretion stimulation only.
Out: 3% (inactive)

In: // Input: `CC[C@@]1(O)C(=O)OCc2c1cc1n(c2=O)Cc2cc3c(CN(C)C)c(O)ccc3nc2-1` . Output its insulin secretion stimulation only.
Out: 0.5% (inactive)

In: // Input: `CCCc1ncc(C[n+]2ccccc2C)c(N)n1` . Output its insulin secretion stimulation only.
Out: 0.95% (inactive)

In: // Input: CCN(CC)CCOC(=O)C(c1ccccc1)C1CCCCC1 (stereo not drawn) . Output its insulin secretion stimulation only.
Out: 18.2% (inactive)

In: // Input: CCN(CC)CC1CCCCN1CC(=O)N1c2ccccc2C(=O)Nc2cccnc21 (stereo not drawn) . Output its insulin secretion stimulation only.
Out: 4% (inactive)

In: // Input: `Nc1nc(F)nc2c1ncn2[C@@H]1O[C@H](CO)[C@@H](O)[C@@H]1O` . Output its insulin secretion stimulation only.
Out: -0.6% (inactive)
